# systemName: human ether-à-go-go-related gene (hERG) potassium channel (human, UniProt Q12809);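 further: peak tail current of the secondary pulse compared with the same well before compound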
# Sequence (Q12809 whole entry, looked up): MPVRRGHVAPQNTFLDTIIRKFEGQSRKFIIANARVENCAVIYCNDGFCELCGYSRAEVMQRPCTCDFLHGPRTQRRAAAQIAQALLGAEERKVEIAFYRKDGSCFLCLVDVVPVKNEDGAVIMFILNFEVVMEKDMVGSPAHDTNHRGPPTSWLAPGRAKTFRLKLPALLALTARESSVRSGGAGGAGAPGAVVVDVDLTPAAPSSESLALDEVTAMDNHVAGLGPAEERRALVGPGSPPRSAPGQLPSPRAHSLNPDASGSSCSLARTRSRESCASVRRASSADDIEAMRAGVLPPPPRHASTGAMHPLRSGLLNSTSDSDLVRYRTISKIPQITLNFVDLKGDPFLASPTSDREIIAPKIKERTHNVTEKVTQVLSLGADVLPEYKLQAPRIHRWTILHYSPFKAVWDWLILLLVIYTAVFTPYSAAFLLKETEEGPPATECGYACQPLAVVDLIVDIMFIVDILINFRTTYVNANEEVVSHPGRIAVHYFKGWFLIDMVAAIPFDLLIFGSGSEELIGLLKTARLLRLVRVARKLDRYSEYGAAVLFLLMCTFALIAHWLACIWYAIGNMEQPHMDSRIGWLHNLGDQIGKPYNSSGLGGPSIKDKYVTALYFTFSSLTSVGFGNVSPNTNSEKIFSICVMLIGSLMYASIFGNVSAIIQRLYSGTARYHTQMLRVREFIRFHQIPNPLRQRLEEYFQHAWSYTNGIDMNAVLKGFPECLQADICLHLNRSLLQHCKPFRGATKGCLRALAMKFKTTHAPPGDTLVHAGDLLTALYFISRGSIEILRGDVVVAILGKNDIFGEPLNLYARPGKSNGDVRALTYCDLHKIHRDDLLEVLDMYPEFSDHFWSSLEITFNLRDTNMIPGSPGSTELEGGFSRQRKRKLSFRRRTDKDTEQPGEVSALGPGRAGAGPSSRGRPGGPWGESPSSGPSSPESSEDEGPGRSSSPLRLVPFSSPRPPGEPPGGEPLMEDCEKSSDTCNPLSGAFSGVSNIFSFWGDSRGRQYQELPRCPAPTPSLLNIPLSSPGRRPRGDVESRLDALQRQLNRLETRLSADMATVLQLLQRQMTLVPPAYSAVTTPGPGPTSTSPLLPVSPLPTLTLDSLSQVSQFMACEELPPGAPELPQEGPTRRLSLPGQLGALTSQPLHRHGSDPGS
# measurementDescription: primary screen, population patch clamp on CHO cells stably expressing hERG; higher = less effect of the substance
Screen size: about 310,000 compounds; about 14,000 (4.5%) showed an effect of 50% or more. The effect is printed as a negative number. This excerpt belongs to a sample that is enriched for strong results.
measurementName: hERG current change (%, negative = inhibition) at 10uM (%)

compound=Cc1ccc(S(=O)(=O)N2CCCCC2)cc1NC(=O)CCc1nc2ccccc2c(=O)[nH]1 readoutvalue=-24.3
compound=Cc1onc(-c2ccccc2)c1C(=O)NCc1ccccc1F readoutvalue=7.62
compound="O=C(COC(=O)C1C2CC3OC(=O)C1C3C2)Nc1ccc(F)cc1 (stereo not shown)" readoutvalue=13.2
compound=Cn1c(-c2ccc3c(c2)OCO3)cnc1NCc1cccc(Cl)c1.O=C(O)C(=O)O readoutvalue=-74
compound="Cc1ccc(N2CC(C(=O)NCc3n[nH]c(=O)c4ccccc34)CC2=O)cc1 (stereo not shown)" readoutvalue=-23.8
compound=CCOC(=O)C1CCN(S(=O)(=O)c2c(C)[nH]c(=O)[nH]c2=O)CC1 readoutvalue=-0.439
compound=Nc1sc(-c2ccccc2)cc1C(=O)N/N=C/c1ccc(Cl)cc1 readoutvalue=18.1
compound=CCCn1[nH]cc(SC)c(=O)c1=O readoutvalue=-5.83
compound=NC(=O)c1sc2nc3c(cc2c1N)CCC3 readoutvalue=8.92
compound=CCCNC(=O)N1[C@H]2CC[C@@H]1C(C(=O)OC)=C(c1ccc(F)cc1OCc1ccccc1)C2 readoutvalue=-23.3
compound=COCCNc1nc(N)c([N+](=O)[O-])c(NC2CCCCC2)n1 readoutvalue=4.56
compound="CCOc1ccc(N2CC(C(=O)NCCc3ccc(S(N)(=O)=O)cc3)CC2=O)cc1 (stereo not shown)" readoutvalue=12.1
compound=Cc1nn(Cc2nnc(SCC(=O)Nc3ccc(Cl)cc3)n2C)c(C)c1[N+](=O)[O-] readoutvalue=-22.9
compound="Cc1ccc(N2CC(C(=O)NC3CC3)CC2=O)cc1Cl (stereo not shown)" readoutvalue=10
compound="COc1ccc(N2CC(C(=O)OCC(=O)c3ccc(C)cc3)CC2=O)cc1 (stereo not shown)" readoutvalue=13.9
compound="O=C(NCc1n[nH]c(=O)c2ccccc12)C1CC(=O)N(c2ccccc2)C1 (stereo not shown)" readoutvalue=-1.81
compound=Cn1c(SCC(=O)Nc2ccccc2[N+](=O)[O-])nnc1C(F)(F)F readoutvalue=-3.31
compound="CCOc1ccc(N2CC(C(=O)NCc3ccccc3)CC2=O)cc1 (stereo not shown)" readoutvalue=-12.3
compound="Cc1ccccc1OCC(O)Cn1c(NCCN(C)C)nc2c1c(=O)n(C)c(=O)n2C (stereo not shown)" readoutvalue=-20.3
compound=Cc1cccc(COc2ncnc3nc[nH]c23)c1 readoutvalue=-6.73
compound=COc1ccc(NCc2ccc3c(c2)OCO3)cc1Cl readoutvalue=-4.31
compound="CCOc1ccc(N2CC(C(=O)NCCc3ccc(F)cc3)CC2=O)cc1 (stereo not shown)" readoutvalue=-65.8
compound=COC(=O)c1cn(CC(=O)N2CCCCCC2)c2ccccc12 readoutvalue=-40.1
compound=O=C(CSc1nncn1-c1cccnc1)Nc1cccc([N+](=O)[O-])c1 readoutvalue=4.83
compound="CCC(=O)Nc1ccc(OCC2CCCO2)cc1 (stereo not shown)" readoutvalue=7.08
compound=COc1ccccc1-c1ccc(SCc2cccc(C)c2)nn1 readoutvalue=-26.6
compound=O=C(CSc1nncn1-c1cccnc1)Nc1ccccc1C(F)(F)F readoutvalue=4.9
compound=Cc1ccc(CNc2ncc(-c3ccc4c(c3)OCO4)n2C)cc1.O=C(O)C(=O)O readoutvalue=-59
compound=Cn1c(-c2ccc3c(c2)OCO3)cnc1NC(=O)CCC(=O)NCCc1ccccc1 readoutvalue=-6.98
compound=CC(C)[C@H](NC(=O)NCCc1ccc(Cl)cc1)C(=O)O readoutvalue=5.9
compound=Cc1nn(Cc2nnc(SCC(=O)Nc3cccc(C(F)(F)F)c3)n2C)c(C)c1[N+](=O)[O-] readoutvalue=-57.7
compound="Cc1cc(O)c(C=O)c2c1C(=O)Oc1c(CO)c(O)c3c(c1O2)C(O)OC3=O (stereo not shown)" readoutvalue=0.355
compound=O=c1c2ccccc2nnn1Cc1ccc(Br)cc1 readoutvalue=8.66
compound=C(=N\Nc1nc(N2CCCC2)nc(N2CCCC2)n1)/c1ccncc1 readoutvalue=2.85

====

# systemName: human ether-à-go-go-related gene (hERG) potassium channel (human, UniProt Q12809);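 further: peak tail current of the secondary pulse compared with the same well before compound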
# measurementDescription: primary screen, population patch clamp on CHO cells stably expressing hERG; higher = less effect of the substance
The campaign covered roughly 310,000 compounds. About 14,000 (4.5%) showed an effect of 50% or more. The effect is printed as a negative number. The list comes from a sample in which strong results are over-represented; it also holds close analogues and randomly drawn compounds.
Classification by hERG current change (%, negative = inhibition) at 10uM | ranges: band A: < -50%; band B: ≥ -50% and < -20%; band C: ≥ -20%

compound=COc1cc(CNn2cn[nH]c2=S)cc(Br)c1OCc1ccccc1F systemname="human ether-à-go-go-related gene (hERG) potassium channel (human, UniProt Q12809)" assignedcategory="band C"
compound="C=CCNCC(O)COc1ccc(C(C)=O)cc1OC.O=C(O)C(=O)O (stereo not drawn)" systemname="human ether-à-go-go-related gene (hERG) potassium channel (human, UniProt Q12809)" assignedcategory="band C"
compound=C=CCOc1ccccc1CNCCNC(=O)c1nonc1N.Cl systemname="human ether-à-go-go-related gene (hERG) potassium channel (human, UniProt Q12809)" assignedcategory="band B"
compound=O=C(CSCc1cccc(F)c1)N1CCN(c2ccccc2)CC1 systemname="human ether-à-go-go-related gene (hERG) potassium channel (human, UniProt Q12809)" assignedcategory="band C"
compound=Cl.Nc1nonc1C(=O)NCCNCc1ccccc1OCc1ccc(F)cc1 systemname="human ether-à-go-go-related gene (hERG) potassium channel (human, UniProt Q12809)" assignedcategory="band A"
compound="O=C(O)c1ccc(Cl)c2c1C1C=CCC1C(c1ccccn1)N2 (stereo not drawn)" systemname="human ether-à-go-go-related gene (hERG) potassium channel (human, UniProt Q12809)" assignedcategory="band C"
compound="COc1ccccc1N1CCN(CC(O)COc2ccc(C)c(C)c2)CC1.Cl (stereo not drawn)" systemname="human ether-à-go-go-related gene (hERG) potassium channel (human, UniProt Q12809)" assignedcategory="band A"
compound=CCCNC(=O)c1ccc(N2CCC3(CC2)CC(c2ccccc2)=NO3)c(NC(=O)c2cccc(OC)c2)c1 systemname="human ether-à-go-go-related gene (hERG) potassium channel (human, UniProt Q12809)" assignedcategory="band A"
compound=O=C(CN(Cc1ccccc1F)C(=O)c1csnn1)NCc1ccc2c(c1)OCO2 systemname="human ether-à-go-go-related gene (hERG) potassium channel (human, UniProt Q12809)" assignedcategory="band B"
compound=O=C(CN(Cc1ccccc1)C(=O)c1ccc2c(c1)OCCO2)NCc1ccc2c(c1)OCO2 systemname="human ether-à-go-go-related gene (hERG) potassium channel (human, UniProt Q12809)" assignedcategory="band A"
compound=O=C(Nc1ccccc1)c1cc([N+](=O)[O-])ccc1N1CCNCC1 systemname="human ether-à-go-go-related gene (hERG) potassium channel (human, UniProt Q12809)" assignedcategory="band B"
compound=COc1ccccc1CN(CC(=O)NCc1ccc2c(c1)OCO2)C(=O)c1csnn1 systemname="human ether-à-go-go-related gene (hERG) potassium channel (human, UniProt Q12809)" assignedcategory="band B"
compound="COc1ccc(N2CCN(CC(O)COc3ccc(C)c(C)c3)CC2)cc1.Cl (stereo not drawn)" systemname="human ether-à-go-go-related gene (hERG) potassium channel (human, UniProt Q12809)" assignedcategory="band B"
compound="CCCCC(CC)C(=O)Nc1cc(C(=O)NCCC)ccc1N1CCC2(CC1)CC(c1ccccc1)=NO2 (stereo not drawn)" systemname="human ether-à-go-go-related gene (hERG) potassium channel (human, UniProt Q12809)" assignedcategory="band A"
compound=Cc1ccc(-c2cc(C(=O)N3CCN(C(=O)c4ccco4)CC3)[nH]n2)cc1C systemname="human ether-à-go-go-related gene (hERG) potassium channel (human, UniProt Q12809)" assignedcategory="band C"
compound="CC1=NN(C(=O)c2ccc(Cn3ccc([N+](=O)[O-])n3)cc2)C(O)(C(F)(F)F)C1 (stereo not drawn)" systemname="human ether-à-go-go-related gene (hERG) potassium channel (human, UniProt Q12809)" assignedcategory="band C"
compound=Cl.Nc1nonc1C(=O)NCCNCc1cc(Br)ccc1OCc1ccc(F)cc1 systemname="human ether-à-go-go-related gene (hERG) potassium channel (human, UniProt Q12809)" assignedcategory="band B"
compound="C/C=C/c1ccc(OCC(O)CNCC(c2ccc(OC)cc2)N(C)C)c(OC)c1.O=C(O)C(=O)O (stereo not drawn)" systemname="human ether-à-go-go-related gene (hERG) potassium channel (human, UniProt Q12809)" assignedcategory="band A"
compound=O=C(Nc1cccc(Cl)c1N1CCOCC1)c1cc([N+](=O)[O-])ccc1N1CCOCC1 systemname="human ether-à-go-go-related gene (hERG) potassium channel (human, UniProt Q12809)" assignedcategory="band B"
